The measured values listed here are drawn from ChEMBL document CHEMBL4190365.

# Test system: MCF7
# protocolDetails: Cytotoxicity in human MCF7 cells assessed as reduction in cell viability incubated for 72 hrs by calcein AM cytotoxicity assay
# Assay type: functional, cell-based
# assaySetup: Homo sapiens, MCF7, 72 h
pIC50: −log10 of the molar value.
experimentalEndpoint: pIC50

chemicalString	qualifierOperator	value
COCCOC(=O)[C@@]12CC[C@]3(C)[C@H](CC[C@@H]4[C@@]5(C)CC[C@H](OC(C)=O)C(C)(C)[C@@H]5CC[C@]43C)C1=C(C(C)C)C(=O)C2	=	4.37
CC(=O)OC[C@H]1O[C@@H](OC(=O)[C@]2(COC(C)=O)CC[C@]3(C)[C@H](CC[C@@H]4[C@@]5(C)CC[C@H](OC(C)=O)C(C)(C)[C@@H]5CC[C@]43C)[C@@H]2O)[C@H](OC(C)=O)[C@@H](OC(C)=O)[C@H]1OC(C)=O	<	4.30
CC(=O)OC[C@H]1O[C@@H](OC(=O)[C@@]23CC[C@]4(C)[C@H](CC[C@@H]5[C@@]6(C)CC[C@H](OC(C)=O)C(C)(C)[C@@H]6CC[C@]54C)C2=C(C(C)C)C(=O)C3)[C@H](OC(C)=O)[C@@H](OC(C)=O)[C@@H]1OC(C)=O	=	5.42

----------
# Test system: G-361
# protocolDetails: Cytotoxicity in human G361 cells assessed as reduction in cell viability incubated for 72 hrs by calcein AM cytotoxicity assay
# Format: functional, cell-based
# assaySetup: Homo sapiens, G-361, 72 h
experimentalEndpoint: log10 of IC50 (log10 of the value in µM)

chemicalString	measuredTarget	log10 of IC50
COCCOCCOC(=O)[C@@]12CC[C@]3(C)[C@H](CC[C@@H]4[C@@]5(C)CC[C@H](OC(C)=O)C(C)(C)[C@@H]5CC[C@]43C)C1=C(C(C)C)C(=O)C2	G-361	1.07
C=C(C=O)[C@@H]1CC[C@]2(C(=O)OCCN3CCOCC3)CC[C@]3(C)[C@H](CC[C@@H]4[C@@]5(C)CC[C@H](O)C(C)(C)[C@@H]5CC[C@]43C)[C@@H]12	G-361	0.72
COCCOC(=O)[C@@]12CC[C@]3(C)[C@H](CC[C@@H]4[C@@]5(C)CC[C@H](OC(C)=O)C(C)(C)[C@@H]5CC[C@]43C)C1=C(C(C)C)C(=O)C2	G-361	1.30
CC(=O)O[C@H]1CC[C@]2(C)[C@H]3CC[C@@H]4C5=C(C(C)C)C(=O)C[C@]5(C(=O)OCCN5CCCCC5)CC[C@@]4(C)[C@]3(C)CC[C@H]2C1(C)C	G-361	0.85
C=C(C)[C@@H]1CC[C@]2(C(=O)OCC(=O)OCc3ccccc3)CC[C@]3(C)[C@H](CC[C@@H]4[C@@]5(C)CC[C@H](O)C(C)(C)[C@@H]5CC[C@]43C)[C@@H]12	G-361	1.35
CC(=O)OC[C@H]1O[C@@H](OC(=O)[C@@]23CC[C@]4(C)[C@H](CC[C@@H]5[C@@]6(C)CC[C@H](OC(C)=O)C(C)(C)[C@@H]6CC[C@]54C)C2=C(C(C)C)C(=O)C3)[C@H](OC(C)=O)[C@@H](OC(C)=O)[C@@H]1OC(C)=O	G-361	0.63
CC(=O)O[C@H]1CC[C@]2(C)[C@H]3CC[C@@H]4C5=C(C(C)C)C(=O)C[C@]5(C(=O)OCC(=O)OCc5ccccc5)CC[C@@]4(C)[C@]3(C)CC[C@H]2C1(C)C	G-361	0.20
CC(=O)OC[C@H]1O[C@@H](OC(=O)[C@@]23CC[C@]4(C)[C@H](CC[C@@H]5[C@@]6(C)CC[C@H](OC(C)=O)C(C)(C)[C@@H]6CC[C@]54C)C2=C(C(C)C)C(=O)C3)[C@H](OC(C)=O)[C@@H](OC(C)=O)[C@H]1OC(C)=O	G-361	0.49
CC(=O)O[C@H]1CC[C@]2(C)[C@H]3CC[C@@H]4C5=C(C(C)C)C(=O)C[C@]5(C(=O)OCC(=O)O)CC[C@@]4(C)[C@]3(C)CC[C@H]2C1(C)C	G-361	1.66

----------
The following compounds are listed with their measured pIC50 values.
# Test system: MCF7
# protocolDetails: Cytotoxicity in human MCF7 cells assessed as reduction in cell viability incubated for 72 hrs by calcein AM cytotoxicity assay
# Assay type: functional, cell-based
# assaySetup: mcf7
pIC50: −log10 of the molar value.
experimentalEndpoint: pIC50

                             chemicalstring  value
0  C=C(C)[C@@H]1CC[C@]2(C(=O)OCCN3CCCC3)CC[C@]3(C)[C@H](CC[C@@H]4[C@@]5(C)CC[C@H](O)C(C)(C)[C@@H]5CC[C@]43C)[C@@H]12   4.84
1  CC(=O)O[C@H]1CC[C@]2(C)[C@H]3CC[C@@H]4C5=C(C(C)C)C(=O)C[C@]5(C(=O)OCCN5CCCCC5)CC[C@@]4(C)[C@]3(C)CC[C@H]2C1(C)C   5.24
2  CC(C)[C@@H]1CC[C@]2(C(=O)OCCN3CCCCC3)CC[C@]3(C)[C@H](CC[C@@H]4[C@@]5(C)CC[C@H](O)C(C)(C)[C@@H]5CC[C@]43C)[C@@H]12   4.58
3  C=C(C)[C@@H]1CC[C@]2(C(=O)OCCN3CCCCC3)CC[C@]3(C)[C@H](CC[C@@H]4[C@@]5(C)CC[C@H](O)C(C)(C)[C@@H]5CC[C@]43C)[C@@H]12   4.47

----------
# Tested on: BJ
# protocolDetails: Cytotoxicity in human BJ cells assessed as reduction in cell viability incubated for 72 hrs by calcein AM cytotoxicity assay
# Type: functional, cell-based
# assaySetup: Homo sapiens, BJ, 72 h
experimentalEndpoint: IC50

chemicalString	experimentalEndpoint	value
CC(C)[C@@H]1CC[C@]2(C(=O)O[C@@H]3O[C@H](CO)[C@@H](O)[C@H](O)[C@H]3O)CC[C@]3(C)[C@H](CC[C@@H]4[C@@]5(C)CC[C@H](O)C(C)(C)[C@@H]5CC[C@]43C)[C@@H]12	IC50	> 50 µM
COCCOCCOC(=O)[C@]12CC[C@@H](C(C)C)[C@@H]1[C@H]1CC[C@@H]3[C@@]4(C)CC[C@H](O)C(C)(C)[C@@H]4CC[C@@]3(C)[C@]1(C)CC2	IC50	30.5 µM
CC(=O)O[C@H]1CC[C@]2(C)[C@H]3CC[C@@H]4C5=C(C(C)C)C(=O)C[C@]5(C(=O)OCC(=O)OCc5ccccc5)CC[C@@]4(C)[C@]3(C)CC[C@H]2C1(C)C	IC50	> 50 µM

----------
# Test system: MCF7
# protocolDetails: Cytotoxicity in human MCF7 cells assessed as reduction in cell viability incubated for 72 hrs by calcein AM cytotoxicity assay
# Assay type: functional, cell-based
# assaySetup: Homo sapiens, MCF7, 72 h
experimentalEndpoint: IC50 (µM)

>>> print(df.to_string())
                             chemicalstring  qualifieroperator  value
0  CC(=O)O[C@H]1CC[C@]2(C)[C@H]3CC[C@@H]4C5=C(C(C)C)C(=O)C[C@]5(C(=O)OCCN5CCOCC5)CC[C@@]4(C)[C@]3(C)CC[C@H]2C1(C)C                  =   14.5
1  CC(=O)OC[C@@]1(C(=O)OCCBr)CC[C@]2(C)[C@H](CC[C@@H]3[C@@]4(C)CC[C@H](OC(C)=O)C(C)(C)[C@@H]4CC[C@]32C)[C@@H]1O                  >     50
2  CC(=O)O[C@H]1CC[C@]2(C)[C@H]3CC[C@@H]4C5=C(C(C)C)C(=O)C[C@]5(C(=O)OCC(=O)OCc5ccccc5)CC[C@@]4(C)[C@]3(C)CC[C@H]2C1(C)C                  =    1.8

----------
# System: BJ
# protocolDetails: Cytotoxicity in human BJ cells assessed as reduction in cell viability incubated for 72 hrs by calcein AM cytotoxicity assay
# Format: functional, cell-based
# assaySetup: Homo sapiens, BJ, 72 h
List of IC50 values.
experimentalEndpoint: IC50

chemicalString	measuredTarget	value
C=C(C)[C@@H]1CC[C@]2(C(=O)OCC(=O)OCc3ccccc3)CC[C@]3(C)[C@H](CC[C@@H]4[C@@]5(C)CC[C@H](O)C(C)(C)[C@@H]5CC[C@]43C)[C@@H]12	BJ	> 50 µM
C=C(C)[C@@H]1CC[C@]2(C(=O)O[C@@H]3O[C@H](CO)[C@H](O)[C@H](O)[C@H]3O)CC[C@]3(C)[C@H](CC[C@@H]4[C@@]5(C)CC[C@H](O)C(C)(C)[C@@H]5CC[C@]43C)[C@@H]12	BJ	> 50 µM
CC(=O)OC[C@@]1(C(=O)OCCBr)CC[C@]2(C)[C@H](CC[C@@H]3[C@@]4(C)CC[C@H](OC(C)=O)C(C)(C)[C@@H]4CC[C@]32C)C1=O	BJ	> 50 µM
CC(C)[C@@H]1CC[C@]2(C(=O)OCCN3CCOCC3)CC[C@]3(C)[C@H](CC[C@@H]4[C@@]5(C)CC[C@H](O)C(C)(C)[C@@H]5CC[C@]43C)[C@@H]12	BJ	37.4 µM
C=C(C)[C@@H]1CC[C@]2(C(=O)OCCN3CCOCC3)CC[C@]3(C)[C@H](CC[C@@H]4[C@@]5(C)CC[C@H](O)C(C)(C)[C@@H]5CC[C@]43C)[C@@H]12	BJ	> 50 µM
C=C(C=O)[C@@H]1CC[C@]2(C(=O)OCCN3CCOCC3)CC[C@]3(C)[C@H](CC[C@@H]4[C@@]5(C)CC[C@H](O)C(C)(C)[C@@H]5CC[C@]43C)[C@@H]12	BJ	19.2 µM
C=C(C)[C@@H]1CC[C@]2(C(=O)O[C@@H]3O[C@H](COC(C)=O)[C@H](OC(C)=O)[C@H](OC(C)=O)[C@H]3OC(C)=O)CC[C@]3(C)[C@H](CC[C@@H]4[C@@]5(C)CC[C@H](O)C(C)(C)[C@@H]5CC[C@]43C)[C@@H]12	BJ	> 50 µM
CC(C)[C@@H]1CC[C@]2(C(=O)OCCN3CCCC3)CC[C@]3(C)[C@H](CC[C@@H]4[C@@]5(C)CC[C@H](O)C(C)(C)[C@@H]5CC[C@]43C)[C@@H]12	BJ	17 µM
CC(=O)O[C@H]1CC[C@]2(C)[C@H]3CC[C@@H]4C5=C(C(C)C)C(=O)C[C@]5(C(=O)O[C@@H]5O[C@H](CO)[C@@H](O)[C@H](O)[C@H]5O)CC[C@@]4(C)[C@]3(C)CC[C@H]2C1(C)C	BJ	48.2 µM
CC(=O)OC[C@H]1O[C@@H](OC(=O)[C@]2(COC(C)=O)CC[C@]3(C)[C@H](CC[C@@H]4[C@@]5(C)CC[C@H](OC(C)=O)C(C)(C)[C@@H]5CC[C@]43C)[C@@H]2O)[C@H](OC(C)=O)[C@@H](OC(C)=O)[C@H]1OC(C)=O	BJ	> 50 µM
CC(C)[C@@H]1CC[C@]2(C(=O)OCC(=O)O)CC[C@]3(C)[C@H](CC[C@@H]4[C@@]5(C)CC[C@H](O)C(C)(C)[C@@H]5CC[C@]43C)[C@@H]12	BJ	> 50 µM
CC(=O)O[C@H]1CC[C@]2(C)[C@H]3CC[C@@H]4C5=C(C(C)C)C(=O)C[C@]5(C(=O)O[C@@H]5O[C@H](CO)[C@H](O)[C@H](O)[C@H]5O)CC[C@@]4(C)[C@]3(C)CC[C@H]2C1(C)C	BJ	48.2 µM
COCCOCCOC(=O)[C@]1(COC(C)=O)CC[C@]2(C)[C@H](CC[C@@H]3[C@@]4(C)CC[C@H](OC(C)=O)C(C)(C)[C@@H]4CC[C@]32C)C1=O	BJ	> 50 µM
C=C(C)[C@@H]1CC[C@]2(C(=O)OCC(=O)O)CC[C@]3(C)[C@H](CC[C@@H]4[C@@]5(C)CC[C@H](O)C(C)(C)[C@@H]5CC[C@]43C)[C@@H]12	BJ	> 50 µM
C=C(C)[C@@H]1CC[C@]2(C(=O)OCCOCCOC)CC[C@]3(C)[C@H](CC[C@@H]4[C@@]5(C)CC[C@H](O)C(C)(C)[C@@H]5CC[C@]43C)[C@@H]12	BJ	> 50 µM
CC(=O)O[C@H]1CC[C@]2(C)[C@H]3CC[C@@H]4C5=C(C(C)C)C(=O)C[C@]5(C(=O)OCCN5CCCCC5)CC[C@@]4(C)[C@]3(C)CC[C@H]2C1(C)C	BJ	49.1 µM
CC(=O)OC[C@H]1O[C@@H](OC(=O)[C@]23CC[C@@H](C(C)C)[C@@H]2[C@H]2CC[C@@H]4[C@@]5(C)CC[C@H](O)C(C)(C)[C@@H]5CC[C@@]4(C)[C@]2(C)CC3)[C@H](OC(C)=O)[C@@H](OC(C)=O)[C@@H]1OC(C)=O	BJ	> 50 µM
C=C(C)[C@@H]1CC[C@]2(C(=O)O[C@@H]3O[C@H](CO)[C@@H](O)[C@H](O)[C@H]3O)CC[C@]3(C)[C@H](CC[C@@H]4[C@@]5(C)CC[C@H](O)C(C)(C)[C@@H]5CC[C@]43C)[C@@H]12	BJ	> 50 µM
